Test system: 786-0
Assay procedure: NCI tumour cell line growth inhibition, 48 h
The source made the active and inactive calls. No stated cut-off is given here; in the data, active = GI50 up to about 1.1 µM and inactive = higher.
For each of the compounds below, state its GI50.

In: Please provide the recorded GI50 for `O=[N+]([O-])c1ccccc1/C=N/C12CC3CC(CC(C3)C1)C2` , tested on 786-0.
Out: 52.4 µM (inactive)

In: Please provide the recorded GI50 for `N#C/C(=C\c1ccc(O)c(O)c1)c1c(C#N)c(N)nn1-c1ccccc1` , tested on 786-0.
Out: 7.67 µM (inactive)

In: Please provide the recorded GI50 for `CN(C)c1nnnn1-c1c(N)n(C)c(=O)n(C)c1=O` , tested on 786-0.
Out: > 100 µM (inactive)

In: Please provide the recorded GI50 for CC(=O)O[C@H]1C[C@]2(C)C(CCC3O[C@@]32C)[C@@]2(CC(c3ccoc3)OC2O)[C@@H]1C (stereo partly specified) , tested on 786-0.
Out: > 100 µM (inactive)

In: Please provide the recorded GI50 for `CCOC(=O)[C@H]1Nc2ccc(Cl)cc2[C@H]2c3ccccc3O[C@H]21` , tested on 786-0.
Out: > 100 µM (inactive)

In: Please provide the recorded GI50 for COC(=O)C1=C(C[S+]([O-])c2ccc([N+](=O)[O-])cc2[N+](=O)[O-])ON(C)C1c1ccccc1 (stereo unspecified) , tested on 786-0.
Out: 67.1 µM (inactive)
